The reported measurements were obtained from ChEMBL document CHEMBL3137667.

Details: human, serum;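 also: human clinical chemistry: moderate when serum ALT or AST reaches 6× upper normal limit or alkaline phosphatase 1.7×, value counts indexed literature references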
Where a SMILES comes first, the peptide text is derived from it. Bridges are numbered along the chain shown (N, C = ends). [ ]: non-standard residue; d: D form. The star is where a group is joined. Threoninol(2S,3R) = C[C@@H](O)[C@H](CO)N*
# key: entry, value: Hepatotoxicity (moderate)
parameter_measured: Hepatotoxicity (moderate)

C[C@@H](O)[C@H](CO)NC(=O)[C@@H]1CSSC[C@H](NC(=O)[C@H](N)Cc2ccccc2)C(=O)N[C@@H](Cc2ccccc2)C(=O)N[C@H](Cc2c[nH]c3ccccc23)C(=O)N[C@@H](CCCCN)C(=O)N[C@@H]([C@@H](C)O)C(=O)N1 (H-[dF]CF[dW]KTC-{Threoninol(2S,3R)}; disulfide 2-7) :: 8
OCCN1CCN(CCCN2c3ccccc3Sc3ccc(Cl)cc32)CC1 :: 2
COc1cc(NS(C)(=O)=O)ccc1Nc1c2ccccc2nc2ccccc12 :: 10
CCCCCCCCNC(C)C(O)c1ccc(SC(C)C)cc1 (configuration not stated) :: 3
COc1ccc([C@@H]2Sc3ccccc3N(CCN(C)C)C(=O)[C@@H]2OC(C)=O)cc1 :: 20
CN(C)CCCN1c2ccccc2CCc2ccc(Cl)cc21 :: 11
CCN(CC)C(=O)C1(c2ccccc2)CC1CN (configuration not stated) :: 0
